- Tested on: Klebsiella aerogenes
- Test method notes: Antibacterial activity against Enterobacter aerogenes CEF 3978 after 18 to 24 hrs by broth microdilution method
- Type: functional
Measurement type: MIC (µg/mL)
I only need the number, in µg/mL, no unit after it.

// known answers, use as guide
- CC(C)C1Cc2sc3[nH]c(=O)n(C/C=C/c4ccc(O)cc4)c(=O)c3c2C(Cc2ccccc2)C1 (configuration not stated): 32
- CCOC(=O)c1sc2[nH]c(=O)n(C/C=C/c3ccc(OC)cc3)c(=O)c2c1CCc1ccccc1: 8
- COc1ccc(/C=C/Cn2c(=O)[nH]c3sc4c(c3c2=O)C(Cc2ccccc2)CC(C(C)C)C4)cc1 (configuration not stated): 32

Moving on to another compound below.
Query: Using Klebsiella aerogenes as the test system, report measured MIC of "CCOC(=O)c1sc2[nH]c(=O)n(C/C=C/c3ccc(O)cc3)c(=O)c2c1CCc1ccccc1" .
Reply: 16
